Biological target: T1, full length human TROP2 on 293F-TROP2 cells (human, UniProt P09758 27-323)
T1 construct: also called 293F-TROP2 cells (clone ID #3A8); cell surface TROP2
T1 sequence: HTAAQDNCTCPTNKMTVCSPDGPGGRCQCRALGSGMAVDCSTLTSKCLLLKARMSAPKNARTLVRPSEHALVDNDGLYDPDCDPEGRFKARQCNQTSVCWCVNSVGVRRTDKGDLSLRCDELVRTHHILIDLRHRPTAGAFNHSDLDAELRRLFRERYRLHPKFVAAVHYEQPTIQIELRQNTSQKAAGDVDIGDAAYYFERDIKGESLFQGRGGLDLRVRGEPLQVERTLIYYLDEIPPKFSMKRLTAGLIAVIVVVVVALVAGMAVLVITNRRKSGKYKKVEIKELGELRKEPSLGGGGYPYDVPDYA
Assay: FACS on 293F-TROP2 cells, MFI
measurementLabel: pEC50
Hey, just a heads up that pEC50 is the negative log base 10 of the concentration in molar.

Check out these entries, answers already filled in.
binder	observedResult
chimeric A1E4F7D4 (antibody, human IgG1, kappa, V domains shown, also called chimeric antibody A1E4F7D4) VH: QVQLQQSGAELAKPGTSVKMSCEASGYSFTTHWIHWMKQRPGQGLEWIGTIFPSNAYAVYNQKFRDRAIMTADRSSTTAYIQLTGLTSEDSAVYYCARASYFDYWGQGTTLTVSS VL: DILLTQSPATLSVSPGERVTFSCRASQNIGTSIHWFQQRTTGSPRLLIKYASESISGIPSRFSGSGSGTDFTLHINSVESEDIAHYYCQHSHSWPFTFGSGTKLEIQR	9.44
mouse antibody C1B3B12D2 (antibody, V domains shown, Mouse monoclonal IgG purified from hybridoma supernatant) VH: QVQLQQSGPELVRPGTSVKMSCKAAGYTFTKFWIGWVKQRPGHGLEWIGNIYPGGAYINYNENFKGKATLTADTFSSTAYMQLNSLTSADSAIYYCAREGSSGYWGQGTTLTVSS VL: DIVMTQSPSSLTVTAGEKVTLSCKCSQSLLNSGTQENYLTWYQQKPGQPPKMLIYWASIREPGVPDRFTGSGSGTDFTLTINNVQAEDLAVYYCQHDYSYPFTFGSGTKLEIK	9.20
mouse antibody A1E4F7D4 (antibody, V domains shown, Mouse monoclonal IgG purified from hybridoma supernatant; also called Mouse A1E4F7D4) VH: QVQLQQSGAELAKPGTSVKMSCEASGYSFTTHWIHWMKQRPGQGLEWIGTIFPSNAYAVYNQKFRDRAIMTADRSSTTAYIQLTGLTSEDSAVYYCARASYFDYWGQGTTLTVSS VL: DILLTQSPATLSVSPGERVTFSCRASQNIGTSIHWFQQRTTGSPRLLIKYASESISGIPSRFSGSGSGTDFTLHINSVESEDIAHYYCQHSHSWPFTFGSGTKLEIQ	9.00

# next binder below
For record chimeric C1B3B12D2 (antibody, human IgG1, kappa, V domains shown) VH: QVQLQQSGPELVRPGTSVKMSCKAAGYTFTKFWIGWVKQRPGHGLEWIGNIYPGGAYINYNENFKGKATLTADTFSSTAYMQLNSLTSADSAIYYCAREGSSGYWGQGTTLTVSS VL: DIVMTQSPSSLTVTAGEKVTLSCKCSQSLLNSGTQENYLTWYQQKPGQPPKMLIYWASIREPGVPDRFTGSGSGTDFTLTINNVQAEDLAVYYCQHDYSYPFTFGSGTKLEIKR the listed pEC50 is 9.09
